B1: EPI-X4 JM#21 [human] / CXCR4 wt (transfected 293T cells) [human] (parent complex)
chain 1: ILRWSRKLPCVS
chain 2: MEGISIYTSDNYTEEMGSGDYDSMKEPCFREENANFNKIFLPTIYSIIFLTGIVGNGLVILVMGYQKKLRSMTDKYRLHLSVADLLFVITLPFWAVDAVANWYFGNFLCKAVHVIYTVNLYSSVLILAFISLDRYLAIVHATNSQRPRKLLAEKVVYVGVWIPALLLTIPDFIFANVSEADDRYICDRFYPNDLWVVVFQFQHIMVGLILPGIVILSCYCIIISKLSHSKGHQKRKALKTTVILILAFFACWLPYYIGISIDSFILLEIIKQGCEFENTVHKWISITEALAFFHCCLNPILYAFLGAKFKTSAQHALTSVSRGSSLKILSKGKRGGHSSVSTESESSSFHSS

Variants of: B1
ASSAY SUMMARY: 12G5 antibody competition assay, flow cytometry on transfected 293T cells; 2 h incubation; IC50 set to 100 µM if above the maximally used concentration; parent: 620 nM; read off a plot
pIC50: −log10 of the molar value.
MEASURE: pIC50

MUTANT DESIGNATION	MEASURE	ENDPOINT VALUE
chain 2 E277A	pIC50	~6.57
chain 2 D97E, chain 2 V112A	pIC50	~6.34
chain 2 D97E, chain 2 V112L	pIC50	~6.42
chain 2 V112A	pIC50	~5.47
chain 2 L41A, chain 2 V112A	pIC50	~6.20
chain 2 D97E	pIC50	~5.74
chain 2 D97T	pIC50	~5.43
chain 2 D97S	pIC50	~5.27
chain 2 D97Q	pIC50	~5.10
chain 2 L41A	pIC50	~6.19

Item under review: chain 2 V112L . Reported pIC50?
~6.40

Item under review: chain 2 D262A . Reported pIC50?
~6.66
